Source of measurements: patent US20210139497A1

target: mouse PGE2 receptor EP4 subtype (mEP4) (Mus musculus, UniProt P32240)
Sequence (P32240 whole entry): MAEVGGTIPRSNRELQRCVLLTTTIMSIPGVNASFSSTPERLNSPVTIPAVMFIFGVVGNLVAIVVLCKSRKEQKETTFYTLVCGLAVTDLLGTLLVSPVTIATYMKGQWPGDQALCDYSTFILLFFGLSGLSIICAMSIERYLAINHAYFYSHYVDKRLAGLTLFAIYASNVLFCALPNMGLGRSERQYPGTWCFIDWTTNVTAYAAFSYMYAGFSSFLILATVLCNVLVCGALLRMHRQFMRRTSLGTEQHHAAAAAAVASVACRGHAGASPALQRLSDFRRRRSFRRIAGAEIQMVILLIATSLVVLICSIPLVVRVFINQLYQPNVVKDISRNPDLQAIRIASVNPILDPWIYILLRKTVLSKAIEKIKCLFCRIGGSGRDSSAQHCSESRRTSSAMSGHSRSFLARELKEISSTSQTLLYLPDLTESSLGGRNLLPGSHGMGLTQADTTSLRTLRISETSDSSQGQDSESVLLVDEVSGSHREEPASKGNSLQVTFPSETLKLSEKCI
assay: Calcium flux of mouse prostaglandin E2 receptor EP4 subtype
conditionSet: CHO-K1-Gα16 cells overexpressing mEP4, calcium flux activated by prostaglandin E2; read-out: mEP4 Ca^2+ IC50
Reported values of IC50 for individual entries

smilesText: C[C@H](NC(=O)c1c(C#Cc2ccc(F)cc2)sc2c1CCC2)c1ccc(C(=O)O)cc1
assayValue: < 100 nM

smilesText: C[C@H](NC(=O)c1c(C#Cc2ccc(F)cc2)sc2c1CCOC2)c1ccc(C(=O)O)cc1
assayValue: 100 to 1000 nM

smilesText: O=C(O)c1ccc(CNC(=O)c2c(Cc3ccc(F)cc3)sc3c2CCOC3)cc1
assayValue: < 100 nM

smilesText: C[C@H](NC(=O)c1c(NCc2ccc(C(F)(F)F)cc2)sc2c1CCOC2)c1ccc(C(=O)O)cc1
assayValue: < 100 nM

smilesText: C[C@H](NC(=O)c1c(CCc2ccc(F)cc2)sc2c1CC(C)(C)OC2)c1ccc(C(=O)O)cc1
assayValue: < 100 nM

Ask | Form field - read-out: IC50; system: mouse PGE2 receptor EP4 subtype (mEP4) (Mus musculus, UniProt P32240); submitted item: C[C@H](NC(=O)c1c(CCc2cccc(C(F)(F)F)c2)sc2c1CCOC2)c1ccc(C(=O)O)cc1
Reply | 100 to 1000 nM

Ask | Form field - read-out: IC50; system: mouse PGE2 receptor EP4 subtype (mEP4) (Mus musculus, UniProt P32240); submitted item: C[C@H](NC(=O)c1c(CCc2ccc(F)cc2)sc2c1CCCC2)c1ccc(C(=O)O)cc1
Reply | < 100 nM

Ask | Form field - read-out: IC50; system: mouse PGE2 receptor EP4 subtype (mEP4) (Mus musculus, UniProt P32240); submitted item: C[C@H](NC(=O)c1c(Cc2ccc(C(F)(F)F)cc2)sc2c1CCOC2)c1ccc(C(=O)O)cc1
Reply | < 100 nM
